Assignment: determine reported Activity for the given compounds.
- Tested on: Salmonella typhimurium
- test_description: Genotoxicity against Salmonella Typhimurium NM2009 assessed as induction of umu operon expression in presence of rat liver S9 fraction
- Format: toxicity, organism-based
- condition_set: salmonella enterica subsp. enterica serovar typhimurium
Give the figure only, with no unit attached.

Requested field: Activity. Item: `CCS(=O)(=O)N1CCC2(CC1)OOC1(OO2)C2CC3CC(C2)CC1C3` 0.95

Requested field: Activity. Item: `O=S(=O)(C1CC1)N1CCC2(CC1)OOC1(OO2)C2CC3CC(C2)CC1C3` 1.07

Requested field: Activity. Item: Nc1ccc2cc3ccccc3cc2c1 [2-AMINOANTHRACENE] 6.09

Requested field: Activity. Item: O=C(CC1CCC2(CC1)OOC1(OO2)C2CC3CC(C2)CC1C3)N1CCOCC1 (centres undefined) 1.02

====

- Tested on: Plasmodium falciparum
- test_description: Antimalarial activity against Plasmodium falciparum GC03
- Type: functional, organism-based
Assignment: determine reported IC50 for the given compounds.
Give the quantity in nM, number only.

Notebook: pull reported IC50 for Plasmodium falciparum, entry `CCN(CC)Cc1cc(Nc2ccnc3cc(Cl)ccc23)ccc1O` 4.5

Notebook: pull reported IC50 for Plasmodium falciparum, entry `CCS(=O)(=O)N1CCC2(CC1)OOC1(OO2)C2CC3CC(C2)CC1C3` 3

====

- test_description: Therapeutic index, ratio of TOX50 for rat H9c(2-1) cells to IC50 Plasmodium falciparum 3D7
Assignment: determine reported TI for the given compounds.

Requested field: TI. Item: `O=S(=O)(C1CC1)N1CCC2(CC1)OOC1(OO2)C2CC3CC(C2)CC1C3` > 14300

Requested field: TI. Item: `CCS(=O)(=O)N1CCC2(CC1)OOC1(OO2)C2CC3CC(C2)CC1C3` > 9090

====

Assignment: determine reported remaining at 48 h for the given compounds.
- test_description: Chemical stability assessed as endoperoxide recovery after 48 hrs by iron degradation study
- Assay type: physicochemical
- condition_set: read-out: Stability
Give the quantity in %, number only.

Requested field: remaining at 48 h. Item: O=S(=O)(c1ccccc1)N1CCC2(CC1)OOC1(O2)C2CC3CC(C2)CC1C3 (stereo not drawn) 0

Requested field: remaining at 48 h. Item: O=S(=O)(c1ccccc1)N1CCC2(CC1)COC1(OO2)C2CC3CC(C2)CC1C3 (stereo not drawn) 43.2

Requested field: remaining at 48 h. Item: `O=S(=O)(c1ccccc1)N1CCC2(CC1)OOC1(OO2)C2CC3CC(C2)CC1C3` 69

====

- test_description: Therapeutic index, ratio of TOX50 for african green monkey (Cercopithecus aethiops) Vero cells to IC50 Plasmodium falciparum 3D7
- Format: cell-based
measured_attribute: TI

Requested field: TI. Item: `CCS(=O)(=O)N1CCC2(CC1)OOC1(OO2)C2CC3CC(C2)CC1C3` > 9090

Requested field: TI. Item: `O=S(=O)(C1CC1)N1CCC2(CC1)OOC1(OO2)C2CC3CC(C2)CC1C3` > 14300

====

Assignment: determine reported CC50 for the given molecules.
- test_description: Cytotoxicity against human MRC5 cells by resazurin reduction assay
- Format: cell-based
- condition_set: read-out: TC50 (the source's name)

Requested field: CC50. Item: `CCS(=O)(=O)N1CCC2(CC1)OOC1(OO2)C2CC3CC(C2)CC1C3` > 50 µM

Requested field: CC50. Item: `O=S(=O)(C1CC1)N1CCC2(CC1)OOC1(OO2)C2CC3CC(C2)CC1C3` > 50 µM
